Catalogue of compounds with associated Giardia (16 uM) Mean % inhibition
tested on: G. lamblia trophozoites (luciferase expressing, WBC6); test: microbe, parasite or virus in culture; assay type: cell-based, Giardia lamblia; conditions: initial Pathogen Box screen, single concentration 16 µM, inhibition compared to DMSO wells
Answer with a number only, understood to be in %.

Record summary for Nc1nccc2ccc(-c3ccc4nccn4c3)cc12 [MMV023233] : reported Giardia (16 uM) Mean % inhibition = 85

Record summary for COc1cc(CN2CCC3(C=Cc4ccccc43)CC2)cc2c1OCO2 [MMV688941] : reported Giardia (16 uM) Mean % inhibition = 62

Record summary for Cc1cc(C)nc(-n2nc(C)cc2Nc2ccccc2)n1 [MMV062221] : reported Giardia (16 uM) Mean % inhibition = 35

----------
system: G. lamblia trophozoites (luciferase expressing, WBC6); assay: microbe, parasite or virus in culture; type: cell-based, Giardia lamblia; conditions: initial Pathogen Box screen, single concentration 16 µM, inhibition compared to DMSO wells
Use 40% as the dividing line for Giardia (16 uM) Mean % inhibition, with the line itself on the T side and lower values as F.

A selection of reference data follows.
Threshold query (Giardia (16 uM) Mean % inhibition >= 40%) on CCn1ncc2c(NC3CCOCC3)c(CNC(=O)c3ccnn3C)c(C)nc21
T

Threshold query (Giardia (16 uM) Mean % inhibition >= 40%) on O=C(C1CCN(c2nnc(-n3cccc3)s2)CC1)N1CCC(Cc2ccccc2)CC1
F

Threshold query (Giardia (16 uM) Mean % inhibition >= 40%) on CC1(C)Cc2c(c(N3CCOCC3)nc3snc(Br)c23)CO1
F

Threshold query (Giardia (16 uM) Mean % inhibition >= 40%) on CC(C)(C)OC(=O)N1CCN(c2cc(-c3ccc(Oc4ccccc4)cc3)n[nH]2)CC1
T

Threshold query (Giardia (16 uM) Mean % inhibition >= 40%) on CC(C)=CCC/C(C)=C\CNCCNC1C2CC3CC(C2)CC1C3 (centres unmarked)
T

Threshold query (Giardia (16 uM) Mean % inhibition >= 40%) on O=C(Nc1ccc2c(c1)B(O)OC2)c1ccccc1C(F)(F)F
F

Threshold query (Giardia (16 uM) Mean % inhibition >= 40%) on N#Cc1nc(-c2ccccc2F)oc1NCCc1ccccc1
F

Threshold query (Giardia (16 uM) Mean % inhibition >= 40%) on O=C(Nc1ccc(N2CCNCC2)nc1)c1oc(-c2ccccc2)nc1C(F)(F)F
F

Threshold query (Giardia (16 uM) Mean % inhibition >= 40%) on FC(F)(F)c1cccc(-c2nc3c(NCc4ccncc4)nccc3[nH]2)c1
F

Threshold query (Giardia (16 uM) Mean % inhibition >= 40%) on CCc1cc(=O)n(C)c(SC(C)C(=O)Nc2ccc(F)cc2)n1 (centres unmarked)
F

---
Threshold query (Giardia (16 uM) Mean % inhibition >= 40%) on CCOc1ccc(-c2nc(NC(=O)CS(=O)(=O)c3ccccc3)sc2C)cc1
F

Threshold query (Giardia (16 uM) Mean % inhibition >= 40%) on Clc1cccc(C(c2ccc(CN3CCNCC3)cc2)n2ccnc2)c1 (centres unmarked)
F

Threshold query (Giardia (16 uM) Mean % inhibition >= 40%) on CCCS(=O)(=O)N1CCC(CO)(Cc2ccccc2C(F)(F)F)CC1
F

----------
Catalogue of molecules with associated Giardia (16 uM) Mean % inhibition
test system: G. lamblia trophozoites (luciferase expressing, WBC6); experiment: microbe, parasite or virus in culture; format: cell-based, Giardia lamblia; conditions: initial Pathogen Box screen, single concentration 16 µM, inhibition compared to DMSO wells
Answer with a number only, understood to be in %.

Record summary for CC(C)(C)c1ccc(N[C@@H]2CCCC[C@H]2NC(=O)c2ccco2)cc1 : reported Giardia (16 uM) Mean % inhibition = 32

---
Record summary for N=C(N)Nc1ccc(-c2ccc(-c3ccc(N=C(N)N)c(Cl)c3)o2)cc1Cl : reported Giardia (16 uM) Mean % inhibition = 53

Record summary for Nc1ccc2ncnc(Nc3ccc(OCc4cccc(F)c4)c(Cl)c3)c2c1 : reported Giardia (16 uM) Mean % inhibition = 51

----------
system: G. lamblia trophozoites (luciferase expressing, WBC6); experiment: microbe, parasite or virus in culture; assay type: cell-based, Giardia lamblia; conditions: initial Pathogen Box screen, single concentration 16 µM, inhibition compared to DMSO wells
Catalogue of compounds with associated Giardia (16 uM) Mean % inhibition
Answer with a number only, understood to be in %.

The cases that follow already have their Giardia (16 uM) Mean % inhibition on record.
Record summary for CCCNC(=O)N1CCC2(CC1)CC(=O)c1cc(C)ccc1O2 : reported Giardia (16 uM) Mean % inhibition = 63

Record summary for CC(C)(C)OC(=O)N1CCC(Cn2nc(-c3cnc4ccccc4c3)c3c(N)ncnc32)CC1 : reported Giardia (16 uM) Mean % inhibition = 56

Record summary for NCCC[C@@](N)(C(=O)O)C(F)F : reported Giardia (16 uM) Mean % inhibition = 16

Record summary for Nc1ncnc2c1ncn2C[C@@H](O)[C@@H](O)C(=O)O : reported Giardia (16 uM) Mean % inhibition = 33

Consider the additional compound presented here.
Record summary for c1cc(C2=NCCN2)cc(-c2cc(-c3ccc(C4=NCCN4)cc3)no2)c1 : reported Giardia (16 uM) Mean % inhibition = 38

----------
Tested on: G. lamblia trophozoites (luciferase expressing, WBC6)
Assay: microbe, parasite or virus in culture
Format: cell-based, Giardia lamblia
Conditions: initial Pathogen Box screen, single concentration 16 µM, inhibition compared to DMSO wells
Description: Trophozoites were harvested by chilling cultures on ice for 30 minutes and plated by adding 150 μL per well at a concentration of 250,000 cells/mL. Metronidazole (Sigma, St. Louis, MO) was used as a control and was serially diluted 1:2 from 40 μM to 0.04 μM and 150 μL was added to the 150 μL of the G. lamblia trophozoites. Plates were covered in plastic low-evaporation lids, sealed in individual anaerobic BD GasPak Bio-Bags (Becton Dickinson, San Jose, CA) and incubated at 37 °C for 24 hours. […]
ENDPOINT: Giardia (16 uM) Mean % inhibition

Record summary for c1ccc(Oc2ccc(-c3cc(N4CCNCC4)[nH]n3)cc2)cc1 : reported Giardia (16 uM) Mean % inhibition = 30%

----------
Test system: G. lamblia trophozoites (luciferase expressing, WBC6)
Assay: microbe, parasite or virus in culture
Type: cell-based, Giardia lamblia
Conditions: initial Pathogen Box screen, single concentration 16 µM, inhibition compared to DMSO wells
Description: Trophozoites were harvested by chilling cultures on ice for 30 minutes and plated by adding 150 μL per well at a concentration of 250,000 cells/mL. Metronidazole (Sigma, St. Louis, MO) was used as a control and was serially diluted 1:2 from 40 μM to 0.04 μM and 150 μL was added to the 150 μL of the G. lamblia trophozoites. Plates were covered in plastic low-evaporation lids, sealed in individual anaerobic BD GasPak Bio-Bags (Becton Dickinson, San Jose, CA) and incubated at 37 °C for 24 hours. […]
ENDPOINT: Giardia (16 uM) Mean % inhibition (%)
Answer with a number only, understood to be in %.

Record summary for Nc1nc(N)c2c3c(sc2n1)CN(Cc1ccccc1)CC3 [MMV688345] : reported Giardia (16 uM) Mean % inhibition = 16

---
Record summary for Cc1ccc2[nH]c(C3CCCNC3)c(-c3ccncc3)c2c1 (stereo not drawn) [MMV024311] : reported Giardia (16 uM) Mean % inhibition = 22

Record summary for Brc1c(-c2ccc3c(c2)OCO3)nc2ncccn12 [MMV676377] : reported Giardia (16 uM) Mean % inhibition = 40

----------
test system: G. lamblia trophozoites (luciferase expressing, WBC6); assay: microbe, parasite or virus in culture; format: cell-based, Giardia lamblia; conditions: initial Pathogen Box screen, single concentration 16 µM, inhibition compared to DMSO wells
Catalogue of molecules with associated Giardia (16 uM) Mean % inhibition
Answer with a number only, understood to be in %.

The cases that follow already have their Giardia (16 uM) Mean % inhibition on record.
Record summary for CCN(CC)C(=O)N1CCN(C)CC1 : reported Giardia (16 uM) Mean % inhibition = 29

Record summary for COc1ccc(Cn2cnc3c(-c4ccco4)nc(Cl)nc32)cc1 : reported Giardia (16 uM) Mean % inhibition = 40

Record summary for CCc1c(C)nc(-n2nc(C)cc2NC(=O)c2ccccc2SC)[nH]c1=O : reported Giardia (16 uM) Mean % inhibition = 28

Record summary for CC(C)(C)n1nc(Cc2ccc(F)c(Cl)c2)c2c(N)ncnc21 : reported Giardia (16 uM) Mean % inhibition = 27

Record summary for CCN(CC)S(=O)(=O)c1ccc(Cl)c(C(=O)Nc2ccc3nc(C)sc3c2)c1 : reported Giardia (16 uM) Mean % inhibition = 15

---
Record summary for COc1cc2ncnc(NC3CCN(Cc4ccccc4)CC3)c2cc1OC : reported Giardia (16 uM) Mean % inhibition = 35

Record summary for O=C(NC1CC1)c1ccc(CSCc2ccccc2Cl)o1 : reported Giardia (16 uM) Mean % inhibition = 6

Record summary for COc1cccc(OC)c1C(=O)Nc1ccc(Cl)c(-c2nc3ccccc3s2)c1 : reported Giardia (16 uM) Mean % inhibition = 28
